ASSAY TARGET: T1, human cMet expressed on 3T3 cells (human, UniProt P08581 25-1390)
T1 construct: whole, on cells; cells fixed with glutaraldehyde; also called cell surface-expressed human cMet; 3T3 cells that over-express human cMet
T1 sequence (P08581 25-1390): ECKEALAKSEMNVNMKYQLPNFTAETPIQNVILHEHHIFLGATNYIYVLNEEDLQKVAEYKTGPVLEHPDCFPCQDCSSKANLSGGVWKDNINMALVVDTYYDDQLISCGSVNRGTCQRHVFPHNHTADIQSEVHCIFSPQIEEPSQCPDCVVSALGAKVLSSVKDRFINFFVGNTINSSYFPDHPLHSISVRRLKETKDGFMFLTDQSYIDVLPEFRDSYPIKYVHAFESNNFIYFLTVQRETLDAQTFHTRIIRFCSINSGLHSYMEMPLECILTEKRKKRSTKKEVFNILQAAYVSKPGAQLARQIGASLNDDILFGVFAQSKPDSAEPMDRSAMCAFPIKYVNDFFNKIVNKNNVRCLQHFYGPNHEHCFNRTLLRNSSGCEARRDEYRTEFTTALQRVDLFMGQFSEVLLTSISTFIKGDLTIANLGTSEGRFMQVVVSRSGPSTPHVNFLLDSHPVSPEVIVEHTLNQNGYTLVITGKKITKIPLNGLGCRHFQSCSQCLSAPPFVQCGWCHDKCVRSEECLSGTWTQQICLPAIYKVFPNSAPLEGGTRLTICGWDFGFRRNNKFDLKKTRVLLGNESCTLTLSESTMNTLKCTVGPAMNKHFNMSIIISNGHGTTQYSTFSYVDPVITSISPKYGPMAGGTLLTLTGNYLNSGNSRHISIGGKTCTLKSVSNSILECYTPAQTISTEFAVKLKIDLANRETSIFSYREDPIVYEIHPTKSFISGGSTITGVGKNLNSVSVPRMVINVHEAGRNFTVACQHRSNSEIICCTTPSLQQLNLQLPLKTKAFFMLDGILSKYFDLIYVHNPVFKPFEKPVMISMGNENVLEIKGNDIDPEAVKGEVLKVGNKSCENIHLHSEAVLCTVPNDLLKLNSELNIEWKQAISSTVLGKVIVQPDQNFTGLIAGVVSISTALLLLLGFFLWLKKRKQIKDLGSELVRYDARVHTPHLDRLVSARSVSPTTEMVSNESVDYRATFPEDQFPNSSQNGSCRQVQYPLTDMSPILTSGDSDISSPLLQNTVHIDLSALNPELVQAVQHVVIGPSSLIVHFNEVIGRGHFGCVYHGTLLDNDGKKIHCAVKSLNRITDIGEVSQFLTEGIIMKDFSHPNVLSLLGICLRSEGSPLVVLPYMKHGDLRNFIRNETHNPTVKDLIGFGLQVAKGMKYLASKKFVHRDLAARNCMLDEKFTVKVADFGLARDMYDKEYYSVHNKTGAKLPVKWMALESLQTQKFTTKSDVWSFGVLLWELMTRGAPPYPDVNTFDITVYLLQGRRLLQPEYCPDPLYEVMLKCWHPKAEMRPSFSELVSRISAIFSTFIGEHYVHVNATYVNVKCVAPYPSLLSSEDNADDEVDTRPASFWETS
TEST DESCRIPTION: whole cell phage ELISA, 3T3 human cMet vs 3T3
Method: Whole cell ELISAs were performed using 3T3 cells that over-express human cMet. […] Briefly, 96-well plates were seeded with 10⁵ cells per well. The plates were centrifuged for 5 minutes at 1600 rpm to pellet the cells. The resulting cell layer was fixed with 0.1% (v/v) glutaraldehyde for 12 minutes at 37 C. […] The plates were washed with PBST. cMet-binding peptide-displaying phage were detected using an HRP-conjugated anti-M13 antibody.
Measured WC ELISA (fold over background), listed per entry.
ATTRIBUTE MEASURED: WC ELISA (fold over background) (fold)

>>> data_value("AGWFQCKGPPSFECERHGT [336-G04 peptide-displaying phage (SEQ ID NO: 051)]")
1.33
>>> data_value("AGSIACTGWPYFSCIDLGT [547-H12 peptide-displaying phage (SEQ ID NO: 088)]")
1.1
>>> data_value("AGNWICTGPPSFGCWYHGT [331-G06 peptide-displaying phage (SEQ ID NO: 078)]")
1.4
>>> data_value("AQAYEWWADESIFNHGYYWGHQ [94-B08 peptide-displaying phage (SEQ ID NO: 470)]")
1.2
>>> data_value("AGMDFCEGFWFLCIGNAT [571-C11 peptide-displaying phage (SEQ ID NO: 035)]")
1.23
>>> data_value("AGHYWCAGPPTFICMGPGT [550-C09 peptide-displaying phage (SEQ ID NO: 062)]")
1.4
>>> data_value("AQPYYELQDADMLLVVALLSTG [94-F07 peptide-displaying phage (SEQ ID NO: 458)]")
1.2
>>> data_value("AGIWFCNNEEKSCWAYGT [471-A11 peptide-displaying phage (SEQ ID NO: 040)]")
1.37
>>> data_value("AGWFECEFGFWGCNWLGT [437-A09 peptide-displaying phage (SEQ ID NO: 018)]")
1.13
>>> data_value("AGYWHCKGPPHFACEFHGT [331-D03 peptide-displaying phage (SEQ ID NO: 077)]")
1.4
>>> data_value("AGYFHCSGSPWFQCDYYGT [550-G08 peptide-displaying phage (SEQ ID NO: 081)]")
1.4
>>> data_value("AGWTWCDLSMMSCIFHGT [573-E07 peptide-displaying phage (SEQ ID NO: 025)]")
1.37
>>> data_value("GSSQICAVYLDDTHNCERHAP [465-A03 peptide-displaying phage (SEQ ID NO: 373)]")
1.3
>>> data_value("AGKTVCQKWESVCSGMGT [465-C11 peptide-displaying phage (SEQ ID NO: 038)]")
1.3
>>> data_value("AGLYLCDLSIMYCFFQGT [489-A04 peptide-displaying phage (SEQ ID NO: 015)]")
1.33
>>> data_value("GSTMSCWRWGRDAYSCNQMAP [557-A12 peptide-displaying phage (SEQ ID NO: 372)]")
1.37
